Test system: Jurkat cells
Test: Tacrolimus dose response of FKBP13-AcGFP-mCherry constructs stably transduced into Jurkat cells, GFP MFI by flow cytometry
Assay type: cell-based
Details: tacrolimus; FIG. 35
Attribute Measured: Peak
Give the figure only, with no unit attached.

What value of Peak has been recorded for this entry: FKBP-277: FKBP13 DRD-AcGFP construct of Table 10 (protein, Description of sequence: Construct Name: FKBP-277; Mutation(s): Q72R Q74R Q84E A117W V85R K135Y) HCPIKSRKGDVLHMHYTGKLEDGTEFDSSLPRNRPFVFSLGTGERIKGWDQGLLGMCEGEKRKLVIPSELGYGERGWPPKIPGGATLVFEVELLYIER
2581

The measured values listed here are drawn from patent US20250186614A1.
